# Assay target: D(2) dopamine receptor (Homo sapiens) (UniProt P14416)
# Sequence (P14416 whole entry, looked up): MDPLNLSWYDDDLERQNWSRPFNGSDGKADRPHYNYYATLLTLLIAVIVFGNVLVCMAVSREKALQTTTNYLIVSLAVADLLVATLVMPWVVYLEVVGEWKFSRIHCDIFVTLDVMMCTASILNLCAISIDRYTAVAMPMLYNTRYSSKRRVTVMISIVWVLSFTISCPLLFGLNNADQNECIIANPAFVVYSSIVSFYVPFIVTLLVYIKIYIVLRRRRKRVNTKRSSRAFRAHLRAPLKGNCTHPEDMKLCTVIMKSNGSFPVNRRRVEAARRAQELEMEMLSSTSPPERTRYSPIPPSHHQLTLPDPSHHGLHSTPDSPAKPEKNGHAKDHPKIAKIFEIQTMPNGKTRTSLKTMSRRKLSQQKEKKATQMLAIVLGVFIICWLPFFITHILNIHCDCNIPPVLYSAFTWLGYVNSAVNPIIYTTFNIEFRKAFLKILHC
# Method: Dopamine D2 receptor (DRD2) small molecule antagonists, cell-based qHTS assay (AID 1963595); further: potency means the concentration at half of the fitted maximal effect
# Measurement setup: HEK293-DRD2 cAMP HTRF antagonist mode; series mostly up to 92.4 µM
Inconclusive results are not listed. The source made the active and inactive calls. The call rests on the fitted dose curve; in most records, active means well fitted inhibition curve with a large enough effect in the signal ratio in the repeat runs, with a control signal flat; inconclusive means weak or mixed curves, or effect the other way; inactive means flat fitted curve, though single readings scatter; the % refers to the signal ratio.
Readout label: Potency

Guide cases for Potency, answers given:
Cc1ccc(O)c(C(C)(C)C)c1
inactive
CO[C@@H]1[C@@H](OC)[C@H](C)[C@@](O)(CC(=O)O)O[C@H]1[C@H](C)[C@H]1O[C@@]2(CC[C@@](C)([C@H]3CC[C@@](C)([C@@H]4O[C@@H]([C@H]5O[C@](C)(O)[C@H](C)C[C@@H]5C)C[C@@H]4OC4C[C@H](OC)[C@@H](OC)[C@H](C)O4)O3)O2)C[C@H](O)[C@H]1C (stereo not given in full)
inactive
OC/C(Br)=C(\Br)CO
inactive
O=S(=O)(O)c1cc(O)ccc1O
inactive

Could you report Potency for every entry in the following list?
1. O=C1NC(=O)c2cccc3cccc1c23
2. Cc1cc2c(cc1C(F)(F)F)N(C(=O)Nc1ccc(Oc3cccnc3C)nc1)CC2
3. COc1cc(Nc2c(C#N)cnc3cc(OCCCN4CCN(C)CC4)c(OC)cc23)c(Cl)cc1Cl
4. O=C(O)c1cn(C2CC2)c2cc(N3CCNCC3)c(F)cc2c1=O
5. Nc1ccc(F)cc1
6. CC(C)COCC(CN(Cc1ccccc1)c1ccccc1)N1CCCC1 (stereo not given)

1: inactive; 2: 6.2 µM (active); 3: inactive; 4: inactive; 5: inactive; 6: 29.8 µM (active)

Value source: PubChem BioAssay (Tox21)
